All values here come from ChEMBL document CHEMBL4402516.

# measured on: Polyunsaturated fatty acid 5-lipoxygenase (Homo sapiens, UniProt P09917)
# method: Competitive inhibition of recombinant human 5-LOX expressed in Escherichia coli BL21 cells using Arachidonic acid as substrate by UV absorbance
observed property: IC50

Give the reported value of IC50 for this record: Clc1ccc(-c2cc(-c3c[nH]c4ccccc34)cc(-c3ccc(Cl)cc3)n2)cc1
10 µM

---

# measured on: UniProtKB P09917
# method: Inhibition of human leukocyte 5-LOX using arachidonic acid as substrate by UV/Vis spectrophotometry
observed property: IC50
# answer = value followed by unit

Supply IC50 value. Item: Cc1ccc(S(=O)(=O)n2c(C(=O)C(=O)N3CCCC3)cc3ccccc32)cc1
170 nM

---

# measured on: Polyunsaturated fatty acid 5-lipoxygenase (Rattus norvegicus)
# Sequence (P12527 whole entry): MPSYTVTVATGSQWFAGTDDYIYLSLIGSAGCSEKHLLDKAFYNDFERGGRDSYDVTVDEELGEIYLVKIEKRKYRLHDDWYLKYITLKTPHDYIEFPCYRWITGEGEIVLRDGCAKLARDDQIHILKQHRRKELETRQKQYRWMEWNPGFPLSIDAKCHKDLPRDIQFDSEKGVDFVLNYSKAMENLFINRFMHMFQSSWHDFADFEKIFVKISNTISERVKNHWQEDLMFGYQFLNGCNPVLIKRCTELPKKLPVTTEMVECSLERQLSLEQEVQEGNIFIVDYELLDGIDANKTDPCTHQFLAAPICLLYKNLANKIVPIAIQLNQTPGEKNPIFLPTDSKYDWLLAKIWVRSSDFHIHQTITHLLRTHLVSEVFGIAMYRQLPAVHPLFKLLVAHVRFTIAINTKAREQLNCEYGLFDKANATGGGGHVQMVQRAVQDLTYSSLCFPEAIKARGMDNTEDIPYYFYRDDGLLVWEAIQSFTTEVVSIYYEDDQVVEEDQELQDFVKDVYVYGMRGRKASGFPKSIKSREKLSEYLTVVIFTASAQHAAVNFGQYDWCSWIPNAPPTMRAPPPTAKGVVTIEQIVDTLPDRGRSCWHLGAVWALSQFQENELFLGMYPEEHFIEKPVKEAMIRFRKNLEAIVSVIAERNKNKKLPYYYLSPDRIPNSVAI
observed property: pIC50
Keep it numeric: pIC50 is minus log10 of the concentration in mol/L.

Give a short answer stating reported pIC50 for CC(C)=CCn1cc(/C=N/NC(N)=O)c2cc(Br)ccc21 .
6.92

---

# measured on: Polyunsaturated fatty acid 5-lipoxygenase (Homo sapiens, UniProt P09917)
# method: Inhibition of recombinant human 5-LOX expressed in baculovirus-infected insect cells preincubated for 10 mins followed by Arachidonic acid and ATP addition and measured after 20 mins by H2DCFD dye based fluorescence method
observed property: pIC50
When answering, recall that pIC50 equals minus log10 of the concentration in mol/L, and write that number alone.

# return recorded pIC50 for input Cn1nccc1-c1ccc(Sc2ccc(C3(C(N)=O)CCOCC3)cc2)cc1
6.64

---

# measured on: Polyunsaturated fatty acid 5-lipoxygenase (Homo sapiens)
# Sequence (P09917 whole entry): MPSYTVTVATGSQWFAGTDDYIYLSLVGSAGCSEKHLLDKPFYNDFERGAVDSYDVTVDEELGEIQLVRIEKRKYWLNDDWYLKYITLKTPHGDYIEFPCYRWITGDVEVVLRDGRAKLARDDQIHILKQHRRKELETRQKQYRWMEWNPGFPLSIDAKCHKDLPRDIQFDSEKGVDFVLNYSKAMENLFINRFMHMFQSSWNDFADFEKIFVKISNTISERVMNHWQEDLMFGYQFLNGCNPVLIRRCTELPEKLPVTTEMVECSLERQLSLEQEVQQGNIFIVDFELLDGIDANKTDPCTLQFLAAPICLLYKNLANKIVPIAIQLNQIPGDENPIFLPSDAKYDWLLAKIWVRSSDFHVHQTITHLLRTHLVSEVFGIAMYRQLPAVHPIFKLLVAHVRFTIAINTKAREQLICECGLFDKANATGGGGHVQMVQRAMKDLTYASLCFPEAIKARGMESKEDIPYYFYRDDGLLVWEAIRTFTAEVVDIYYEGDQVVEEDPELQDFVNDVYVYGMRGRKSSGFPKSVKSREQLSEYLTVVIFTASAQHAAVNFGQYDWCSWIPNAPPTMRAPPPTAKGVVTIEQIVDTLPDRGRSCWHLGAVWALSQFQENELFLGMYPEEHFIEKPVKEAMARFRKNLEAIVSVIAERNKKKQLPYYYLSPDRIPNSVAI
# method: Inhibition of 5-LOX (unknown origin) after 5 mins by colorimetric method
observed property: IC50 (µM)
Just the number in µM, nothing appended.

Quote IC50 with test system Polyunsaturated fatty acid 5-lipoxygenase (Homo sapiens) for Cc1cc(Nc2ncc(-c3ccc(F)cc3)o2)cc(C)c1O
48.3

---

# measured on: Polyunsaturated fatty acid 5-lipoxygenase (Homo sapiens, UniProt P09917)
# Sequence (P09917 whole entry): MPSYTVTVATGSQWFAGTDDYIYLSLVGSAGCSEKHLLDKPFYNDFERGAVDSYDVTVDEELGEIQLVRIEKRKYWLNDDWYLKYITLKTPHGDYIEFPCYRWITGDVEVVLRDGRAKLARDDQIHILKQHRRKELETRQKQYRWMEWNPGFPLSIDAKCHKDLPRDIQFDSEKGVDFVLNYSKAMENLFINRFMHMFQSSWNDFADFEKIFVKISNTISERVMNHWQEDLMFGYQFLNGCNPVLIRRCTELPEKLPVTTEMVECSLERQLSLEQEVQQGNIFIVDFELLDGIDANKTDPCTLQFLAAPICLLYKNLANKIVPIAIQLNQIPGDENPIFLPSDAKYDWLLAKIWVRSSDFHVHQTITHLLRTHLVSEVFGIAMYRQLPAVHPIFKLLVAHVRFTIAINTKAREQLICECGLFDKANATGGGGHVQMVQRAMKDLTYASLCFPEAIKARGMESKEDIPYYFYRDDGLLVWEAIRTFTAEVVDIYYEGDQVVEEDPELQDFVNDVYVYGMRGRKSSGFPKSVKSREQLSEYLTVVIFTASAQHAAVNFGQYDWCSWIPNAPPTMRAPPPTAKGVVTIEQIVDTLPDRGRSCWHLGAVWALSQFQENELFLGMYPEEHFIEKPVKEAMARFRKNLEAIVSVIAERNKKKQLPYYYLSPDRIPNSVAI
# method: Inhibition of 5-LOX in A23187-stimulated human neutrophils preincubated for 15 mins followed by A23187 stimulation and measured after 10 mins
observed property: pIC50
The read-out pIC50 is expressed as -log10 of concentration in moles per litre.

Give the measured pIC50 for Cc1cccc(OC(=O)c2cc([N+](=O)[O-])cc([N+](=O)[O-])c2)c1
6.05
